Reference source for all entries: patent US20230310441A1

# procedureText: Phase 1 FIH study: plasma pharmacokinetics in healthy participants
# Type: in vivo, human
# assayConditions: human, plasma, oral, 120 mg, Part 1 SRD, 120 mg (secondary peak in some participants); read-out: median tmax
# Method: Part 1 was a double-blind, SRD study in healthy adults, utilizing an alternate panel design (cohorts 1, 2) and sequential panel design (cohorts 3-5). […] Although planned, all subsequent doses after the dose of 80 mg were determined based on emerging safety, tolerability, and PK data from the preceding cohorts. […] Pharmacokinetic parameters were determined from the concentration-time profiles for all evaluable participants. […]
measurementKind: Tmax (h)
Reply with just the number (in h).

Reported Tmax of C[C@H](NC(=O)Cn1nnc2ccccc2c1=O)c1ccc(OC(F)(F)F)cc1 : 13

====

# procedureText: Phase 1 FIH study: plasma pharmacokinetics in healthy participants
# Type: in vivo, human
# assayConditions: human, plasma, oral, Part 2 MRD, 160/80 mg, up to 168 h post-dose; read-out: Mean Cmax (SD)
# Method: Part 1 was a double-blind, SRD study in healthy adults, utilizing an alternate panel design (cohorts 1, 2) and sequential panel design (cohorts 3-5). […] Although planned, all subsequent doses after the dose of 80 mg were determined based on emerging safety, tolerability, and PK data from the preceding cohorts. […] Pharmacokinetic parameters were determined from the concentration-time profiles for all evaluable participants. […]
measurementKind: Cmax (ng/mL)
Reply with just the number (in ng/mL).

Reported Cmax of C[C@H](NC(=O)Cn1nnc2ccccc2c1=O)c1ccc(OC(F)(F)F)cc1 [Compound (I)] : 1760

====

# procedureText: Phase 1 FIH study: plasma pharmacokinetics in healthy participants
# Type: in vivo, human
# assayConditions: human, plasma, po, healthy, oral, 160/80 mg, Day 22, N 6; read-out: AUC24 (mean)
measurementKind: AUC
Answer format: value, then unit.

Reported AUC of C[C@H](NC(=O)Cn1nnc2ccccc2c1=O)c1ccc(OC(F)(F)F)cc1 [Compound (I)] : 47400 ng·h/mL

====

# procedureText: Phase 1 FIH study: plasma pharmacokinetics in healthy participants
# Type: in vivo, human
# assayConditions: human, plasma, po, healthy, oral, 120/60 mg, Day 22, N 6; read-out: Vz/F (mean)
measurementKind: Vd/F (L)
Reply with just the number (in L).

Reported Vd/F of C[C@H](NC(=O)Cn1nnc2ccccc2c1=O)c1ccc(OC(F)(F)F)cc1 : 73

====

# procedureText: Phase 1 FIH study: plasma pharmacokinetics in healthy participants
# Type: in vivo, human
# assayConditions: human, plasma, po, healthy, oral, 40/20 mg, Day 22, N 6; read-out: tmax (median)
measurementKind: Tmax (h)
Reply with just the number (in h).

Reported Tmax of C[C@H](NC(=O)Cn1nnc2ccccc2c1=O)c1ccc(OC(F)(F)F)cc1 : 1.75

====

# procedureText: Phase 1 FIH study: plasma pharmacokinetics in healthy participants
# Assay type: in vivo, human
# assayConditions: human, plasma, po, healthy, oral, 160/80 mg, Day 22, N 6; read-out: AUCτ (mean)
measurementKind: AUC (µg·h/mL)
Reply with just the number (in µg·h/mL).

Reported AUC of C[C@H](NC(=O)Cn1nnc2ccccc2c1=O)c1ccc(OC(F)(F)F)cc1 : 294

====

# procedureText: Phase 1 FIH study: plasma pharmacokinetics in healthy participants
# Type: in vivo, human
# assayConditions: human, plasma, po, healthy, oral, 80/40 mg, Day 22, N 6; read-out: AUC96 (mean)
measurementKind: AUC (ng·h/mL)
Reply with just the number (in ng·h/mL).

Reported AUC of C[C@H](NC(=O)Cn1nnc2ccccc2c1=O)c1ccc(OC(F)(F)F)cc1 : 92700

====

# procedureText: Phase 1 FIH study: plasma pharmacokinetics in healthy participants
# Assay type: in vivo, human
# assayConditions: human, plasma, po, oral suspension (comparison for Part 3); read-out: median tmax
measurementKind: Tmax (h)
Reply with just the number (in h).

Reported Tmax of C[C@H](NC(=O)Cn1nnc2ccccc2c1=O)c1ccc(OC(F)(F)F)cc1 [Compound (I)] : 1.82

====

# procedureText: Phase 1 FIH study: plasma pharmacokinetics in healthy participants
# Type: in vivo, human
# assayConditions: human, plasma, po, healthy, oral, 80/40 mg, Day 22, N 6; read-out: AUC24 (mean)
measurementKind: AUC (ng·h/mL)
Reply with just the number (in ng·h/mL).

Reported AUC of C[C@H](NC(=O)Cn1nnc2ccccc2c1=O)c1ccc(OC(F)(F)F)cc1 : 24400

====

# procedureText: Phase 1 FIH study Part 4: plasma pharmacokinetics in patients with stable schizophrenia
# Assay type: in vivo, human
# assayConditions: human, plasma, po, stable schizophrenia, oral, 160/80 mg, Day 1, N 15; read-out: AUC24 (mean)
measurementKind: AUC (ng·h/mL)
Reply with just the number (in ng·h/mL).

Reported AUC of C[C@H](NC(=O)Cn1nnc2ccccc2c1=O)c1ccc(OC(F)(F)F)cc1 [Compound (I)] : 20400

====

# procedureText: Phase 1 FIH study: plasma pharmacokinetics in healthy participants
# Assay type: in vivo, human
# assayConditions: human, plasma, oral, 160 mg, Part 1 SRD, 160 mg (secondary peak in some participants); read-out: median tmax
measurementKind: Tmax (h)
Reply with just the number (in h).

Reported Tmax of C[C@H](NC(=O)Cn1nnc2ccccc2c1=O)c1ccc(OC(F)(F)F)cc1 : 13.5

====

# procedureText: Phase 1 FIH study Part 4: plasma pharmacokinetics in patients with stable schizophrenia
# Format: in vivo, human
# assayConditions: human, plasma, po, stable schizophrenia, oral, 160/80 mg, Day 22, N 14
measurementKind: AUC(0-t) (µg·h/mL)
Reply with just the number (in µg·h/mL).

Reported AUC(0-t) of C[C@H](NC(=O)Cn1nnc2ccccc2c1=O)c1ccc(OC(F)(F)F)cc1 [Compound (I)] : 660

====

# procedureText: Phase 1 FIH study: plasma pharmacokinetics in healthy participants
# Format: in vivo, human
# assayConditions: human, plasma, po, healthy, oral, 160/80 mg, Day 22, N 6; read-out: AUC96 (mean)
measurementKind: AUC (µg·h/mL)
Reply with just the number (in µg·h/mL).

Reported AUC of C[C@H](NC(=O)Cn1nnc2ccccc2c1=O)c1ccc(OC(F)(F)F)cc1 [Compound (I)] : 181

====

# procedureText: Phase 1 FIH study: plasma pharmacokinetics in healthy participants
# Assay type: in vivo, human
# assayConditions: human, plasma, po, healthy, oral, 120/60 mg, Day 22, N 6; read-out: AUC24 (mean)
measurementKind: AUC (ng·h/mL)
Reply with just the number (in ng·h/mL).

Reported AUC of C[C@H](NC(=O)Cn1nnc2ccccc2c1=O)c1ccc(OC(F)(F)F)cc1 : 35900

====

# procedureText: Phase 1 FIH study Part 4: plasma pharmacokinetics in patients with stable schizophrenia
# Type: in vivo, human
# assayConditions: human, plasma; stable schizophrenia, oral, 160/80 mg, Day 22, N 14; read-out: Vz/F (mean)
measurementKind: Vd/F (L)
Reply with just the number (in L).

Reported Vd/F of C[C@H](NC(=O)Cn1nnc2ccccc2c1=O)c1ccc(OC(F)(F)F)cc1 [Compound (I)] : 172

====

# procedureText: Phase 1 FIH study: plasma pharmacokinetics in healthy participants
# Type: in vivo, human
# assayConditions: human, plasma, po, healthy, oral, 120/60 mg, Day 22, N 6
measurementKind: AUC(0-t)
Answer format: value, then unit.

Reported AUC(0-t) of C[C@H](NC(=O)Cn1nnc2ccccc2c1=O)c1ccc(OC(F)(F)F)cc1 [Compound (I)] : 407 µg·h/mL

====

# procedureText: Phase 1 FIH study Part 4: plasma pharmacokinetics in patients with stable schizophrenia
# Format: in vivo, human
# assayConditions: human, plasma, po, stable schizophrenia, oral, 160/80 mg, Day 1, N 15
measurementKind: AUC(0-t) (µg·h/mL)
Reply with just the number (in µg·h/mL).

Reported AUC(0-t) of C[C@H](NC(=O)Cn1nnc2ccccc2c1=O)c1ccc(OC(F)(F)F)cc1 : 149

====

# procedureText: Phase 1 FIH study: plasma pharmacokinetics in healthy participants
# Type: in vivo, human
# assayConditions: human, plasma, po, healthy, oral, 160/80 mg, Day 22, N 6; read-out: Cmax (mean)
measurementKind: Cmax (ng/mL)
Reply with just the number (in ng/mL).

Reported Cmax of C[C@H](NC(=O)Cn1nnc2ccccc2c1=O)c1ccc(OC(F)(F)F)cc1 [Compound (I)] : 2410

====

# procedureText: Phase 2 crossover study: plasma pharmacokinetics in schizophrenia subjects
# Assay type: in vivo, human
# assayConditions: human, plasma; single oral dose 40 mg, schizophrenia subjects
measurementKind: AUC(0-inf) (µg·h/mL)
Reply with just the number (in µg·h/mL).

Reported AUC(0-inf) of C[C@H](NC(=O)Cn1nnc2ccccc2c1=O)c1ccc(OC(F)(F)F)cc1 : 217

====

# procedureText: Phase 1 FIH study: plasma pharmacokinetics in healthy participants
# Assay type: in vivo, human
# assayConditions: human, plasma, po, healthy, oral, 80/40 mg, Day 22, N 6; read-out: AUCτ (mean)
measurementKind: AUC (µg·h/mL)
Reply with just the number (in µg·h/mL).

Reported AUC of C[C@H](NC(=O)Cn1nnc2ccccc2c1=O)c1ccc(OC(F)(F)F)cc1 : 149
